# Assay: Pharmacokinetic study in male SD rats
# Format: in vivo
# Run conditions: rat, plasma, oral, gavage 10 mg/kg vs intravenous 1 mg/kg
# Method: 1) Purpose of the Study: Obtain the Pharmacokinetic Characterization of the Compounds of the Present Invention in Male SD Rats […] Experimental results: The pharmacokinetic parameters after administration were calculated from the blood concentration data obtained by LC-MS/MS assay using the non-compartmental model of WinNonlin® 7.0 software (Pharsight, Inc., USA) and are shown in the table below: […]
Quantity: bioavailability (%)
Value expressed in %; do not type the unit.

Query: Give the measured bioavailability of Cn1c(C#Cc2nccc(Nc3ccc(-c4cn[nH]c4)cc3)n2)ccc1C(=O)N1CC(F)(F)C1 [Compound A1] .
Response: 11.5
